Target: HIV-1 Rev (Human immunodeficiency virus 1, UniProt P04618 P04618:1-116)
Assay: competition; D1/2 vs labelled RRE RNA, 17 nM rev
Conditions: tags: none stated; heparin-Sepharose and Superose 6 purified; chain copies: oligomer (tetramer likely; about 4 per RBC6, 6-8 per full-length RRE at 50 mM KCl) stated; label: 32P uniform; stem-loop with purine-rich bubble on 9-bp stem

| binder | IC50 [nM] |
| --- | --- |
| R33 (ssRNA) RNA: GGGAGACCGGAAUUCUGGGCGCAGUGUCAUUGACGCUGCGGUACAGAAUUCCGGCA | 8 |
